Assay: Primary qHTS for inhibitors of nuclear receptor binding SET domain protein 2 (NSD2) in an isogenic RCH-ACV NSD2 p.E1099K mutant (9B) (AID 1645876); note: nearly all actives have a fitted effect of over 70% in size; note: potency is the fitted concentration of half-maximal effect
Conditions: RCH-ACV (leukaemia line) NSD2 E1099K (9B) viability, CellTiter-Glo, 72 h; series mostly up to 44.9 µM
Records with an inconclusive call do not appear. Active and inactive are the calls of the source. Calls come from the whole dose curve; as a rule, active = well fitted inhibition curve with a large enough effect; inconclusive = small, poorly fitted or top-dose-only effect; inactive = flat fitted curve, though single readings scatter.
EXPERIMENTAL ENDPOINT: Potency

Past entries and their recorded results:
{"columns": ["COMPOUND", "Potency"],
 "data": [
  ["C=CC1C(OC2OC(CO)C(O)C(O)C2O)OC=C(C(=O)OC)C1CC1CC(=O)CC(CCc2ccc(O)cc2)O1 (stereo not given)", "inactive"],
  ["C[C@]12C=C[C@@]3(CCC4[C@](C)(CO)CCC[C@@]4(C)C3CC1)C2 (stereo not given in full)", "inactive"],
  ["O=C(NCc1ccc(S(=O)(=O)c2cc(F)cc(F)c2)cc1)c1ccc2nccn2c1", "inactive"],
  ["COc1cc(O)cc(C)c1C(=O)O[C@@H]1[C@H](O)[C@@H](CO)O[C@H]1n1ccc(=O)[nH]c1=O", "inactive"]
]}

API: the following record is the query input.
[ask] I am curious: what Potency value has been reported for `COc1cc2ncnc(Nc3cccc(O)c3)c2cc1OC` ?
[reply] 2.9 µM (active)
